Reported remaining target (mRNA or protein) (fraction of control) values for a set of sequences
Tested System: MAP4K4
Condition Label: ASO; further: test concentration or dose not given here
These antisense oligonucleotides have a phosphorothioate backbone; sugars and methylation of C are not fully specified.
Outcome Measure: remaining target (mRNA or protein) (fraction of control)

# Macromolecule Sequence, Tested System, Measurement
measured = [
    ("CACTGCATTTTCCAGGCGCT", "MAP4K4", 0.49),
    ("GCCTTGATTTATTTTGGAGT", "MAP4K4", 0.92),
    ("GCTCCTTTCCTGCTGCGGTG", "MAP4K4", 0.37),
    ("GGATCATTGTGAAGTATTTT", "MAP4K4", 0.84),
]

----------
remaining target (mRNA or protein) (fraction of control): recorded values
Tested System: CD44
Condition Label: ASO
These antisense oligonucleotides have a phosphorothioate backbone; sugars and methylation of C are not fully specified.
Outcome Measure: remaining target (mRNA or protein) (fraction of control)

# Macromolecule Sequence, Tested System, Measurement
records = [
    ("AGCAATGCCCAGGGATTA", "CD44", "≥ 1"),
    ("CGATCTGCGCCAGGCTCA", "CD44", 0.72),
    ("CCTTTGGTGTCTCCCAGA", "CD44", "≥ 1"),
    ("AGAGGGATGCCAAGATGA", "CD44", "≥ 1"),
    ("GGCCTCTCCGTTGAGTCC", "CD44", "≥ 1"),
    ("TCAAAGGACTGATCCAGG", "CD44", "≥ 1"),
    ("GACTGTTGACTGCAATGC", "CD44", "≥ 1"),
    ("CTCAGCGGCACGAGGCAG", "CD44", 0.91),
    ("TCCATCAAAGGCATTGGG", "CD44", "≥ 1"),
    ("CTTGTTCACCAAATGCAC", "CD44", "≥ 1"),
    ("CTGTCTTCGTCTGGGATG", "CD44", "≥ 1"),
    ("TCCACTTGGCTTTCTGTC", "CD44", "≥ 1"),
    ("AAGGCATTGGGCAGGTCT", "CD44", 0.99),
    ("AGGTCTCAAATCCGATGC", "CD44", "≥ 1"),
    ("GTGGGCAAGGTGCTATTG", "CD44", "≥ 1"),
    ("ATCCAGGGACTGTCTTCG", "CD44", "≥ 1"),
    ("ATCCATAGCACACCCGAG", "CD44", "≥ 1"),
    ("AACCCTGGGAAATGTCCT", "CD44", "≥ 1"),
    ("AGGACTGATCCAGGGTTT", "CD44", 0.83),
    ("GGCTTTCTGTCCTCCACA", "CD44", "≥ 1"),
    ("AGAGCTTTCTCCATCTGG", "CD44", "≥ 1"),
    ("CCATTTCCTGAGACTTGC", "CD44", "≥ 1"),
    ("GGGCCCTAATTTACAAAG", "CD44", 0.88),
    ("GTCCTCCACAGCTCCATT", "CD44", "≥ 1"),
    ("TGCTATTGAAAGCCTTGC", "CD44", "≥ 1"),
    ("TCCCAGCTCCCTGTAATG", "CD44", "≥ 1"),
    ("CGGAGCGAACGGAGGGCG", "CD44", "≥ 1"),
    ("TCTTCTGCCCACACCTTC", "CD44", "≥ 1"),
    ("CGTCCGAGAGATGCTGTA", "CD44", 0.52),
    ("CCCACACCTTCTTCGACT", "CD44", 0.94),
    ("TCTCCATCTGGGCCATTG", "CD44", "≥ 1"),
    ("AGCCATCCATAGCACACC", "CD44", 0.97),
    ("CCACATGCCCTTCTATGA", "CD44", 0.9),
    ("AAGCCAAGGCCAAGAGGG", "CD44", "≥ 1"),
    ("ACCAGGCCCTATTAACCC", "CD44", "≥ 1"),
    ("ATAGCACACCCGAGGATG", "CD44", "≥ 1"),
    ("TCTTGGTCTCTGGTAGCA", "CD44", "≥ 1"),
    ("TTGCTCCACCTTCTTGAC", "CD44", "≥ 1"),
    ("TGAGACTTGCTGGCCTCT", "CD44", 0.93),
    ("GCCATTCTGGAATTTGGG", "CD44", "≥ 1"),
    ("AGCCGCTGCTCACGTCAT", "CD44", "≥ 1"),
    ("TAGCGGGTGCCATCACGG", "CD44", "≥ 1"),
    ("GCAAGAATCAAAGCCAAG", "CD44", "≥ 1"),
    ("GGTTGGCGATCAGGAATA", "CD44", "≥ 1"),
    ("GGCAGGTCTGTGACTGAT", "CD44", "≥ 1"),
    ("CAAGGTGCTATTGAAAGC", "CD44", 0.92),
    ("GAAAGCCTTGCAGAGGTC", "CD44", 0.9),
    ("ACGTGGAATACACCTGCA", "CD44", "≥ 1"),
    ("TGGTAGCAGGGATTCTGT", "CD44", "≥ 1"),
    ("GCTGCTCCTTTCACTGGA", "CD44", 0.9),
    ("GTCTCCCAGAAGCATCTG", "CD44", "≥ 1"),
    ("CGTTGAGTCCACTTGGCT", "CD44", "≥ 1"),
    ("CTGGACATAGCGGGTGCC", "CD44", "≥ 1"),
    ("TTTCCTCCCAGGGACCAG", "CD44", "≥ 1"),
    ("GCCTCCAAGTGGAACTGA", "CD44", 0.99),
    ("TACACCTGCAAAGCGGCA", "CD44", "≥ 1"),
    ("TGCAGAGGTCAGCGGCCT", "CD44", "≥ 1"),
    ("ACAGCTCCATTGCCACTG", "CD44", "≥ 1"),
    ("GGCACGAGGCAGAGTCCC", "CD44", "≥ 1"),
    ("GCGGCAGGTTATATTCAA", "CD44", "≥ 1"),
    ("ATCAGTAGGGTTGCTGGG", "CD44", "≥ 1"),
    ("GTTTCCAACGGTTGTTTC", "CD44", "≥ 1"),
    ("GTGGAGCTGAAGCATTGA", "CD44", "≥ 1"),
    ("GGTTATGTTTCCAACGGT", "CD44", "≥ 1"),
    ("CCAACCTCAGTGGAAAGC", "CD44", "≥ 1"),
    ("TTGACTCCCATGTGAGTG", "CD44", "≥ 1"),
    ("AAAGGTTGGCGATCAGGA", "CD44", "≥ 1"),
]

----------
Tested System: NSMAF
Condition Label: ASO
These antisense oligonucleotides have a phosphorothioate backbone; sugars and methylation of C are not fully specified.
Readings of remaining target (mRNA or protein) (fraction of control) for the listed sequences
Outcome Measure: remaining target (mRNA or protein) (fraction of control)

# Macromolecule Sequence, Tested System, Measurement
rows = [
    ("GACTCCCATACATGAACT", "NSMAF", 0.51),
    ("CCTTTCTATTTTATATGG", "NSMAF", 0.74),
    ("TTTCCTTTCATGGTGACT", "NSMAF", 0.43),
    ("ATCTGCCATAGAAGCATT", "NSMAF", 0.56),
    ("GCCGTGCCTCCTTTTGTA", "NSMAF", 0.47),
    ("TGTGTCCGTGATGCACAC", "NSMAF", 0.24),
    ("TACACTGACATCATGTTC", "NSMAF", 0.43),
    ("TTAAAATCCGTTGCACCA", "NSMAF", 0.55),
]

----------
Each item that follows carries a reported remaining target (mRNA or protein) (fraction of control).
Tested System: SMAD7
Condition Label: ASO
These antisense oligonucleotides have a phosphorothioate backbone; sugars and methylation of C are not fully specified.
Outcome Measure: remaining target (mRNA or protein) (fraction of control)

# Macromolecule Sequence, Measurement
data = [
    ("TGCCCAGGTACTGCCTCT", 0.72),
    ("ACTCACACACACTCCTGA", 0.79),
    ("AGGAGGCGAGGAGAAAAG", "≥ 1"),
    ("AACCTTTGTAGTTAGAAA", 0.94),
    ("GCTCAGCTCACGCTCTGT", 0.62),
    ("TGGACACAGTAGAGCCTC", "≥ 1"),
    ("GATGGTACCTTGGGTTAT", 0.94),
    ("CAATCTTGTGTTTATCTT", "≥ 1"),
    ("CGACAGCAGCAGCAGCAG", 0.82),
    ("CTGATCTGCACGGTAAAG", "≥ 1"),
    ("CCCTCCTCCTCGTCCTCG", 0.72),
    ("GGACTTGATGAAGATGGG", "≥ 1"),
    ("TTGGGACTGCAAACCTCT", 0.91),
    ("GTATGCCACCACGCACCA", "≥ 1"),
    ("AATTGGTTCTGGTTCGGC", "≥ 1"),
    ("AGGCGGCCGGGCAGCAGG", "≥ 1"),
    ("GTAGAAGAAATGAAAGAA", "≥ 1"),
    ("ACACACAGGATGGGAGCA", "≥ 1"),
    ("AGTTCGCAGAGTCGGCTA", 0.68),
    ("GGACATCCCCGCTTGCTG", "≥ 1"),
    ("CTCCGGCTGCCCCACCCC", 0.52),
    ("GCTGTCCGTCGCCCCTTC", 0.87),
    ("GGCAGCTGCTGATGAACT", 0.86),
]

Recorded values, source the OligoGym collection.
